// reported protein stability index for each item listed
B1: IMPA1 (parent)
chain: FIGEESVAAGEKSILTDNPTWIID

# Variants of: B1
# assay overview: protein stability index of a GFP-peptide fusion (GPS, HEK-293T) (PSI 1-6); higher = more stable;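 further: lentivirally expressed fusions sorted by FACS into six bins by GFP to DsRed ratio, PSI derived from sequencing read proportions per bin multiplied by bin number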
# measurement setup: c terminus: a fixed tail appended
Enter a number only.

Reference set, count: 5
mutation key: T16L
measured value: 1.83

mutation key: E5A
measured value: 2.05

mutation key: A8M
measured value: 2.05

mutation key: S13A
measured value: 2.06

mutation key: G3I
measured value: 1.4

May I ask what protein stability index has been recorded for D24N ?
1.66
